Each recorded value in this set is attributed to PubChem BioAssay AID2060610.

Listing of recorded viability, T/C by entry.
# System: 616215-338-R-J1-PDC complex spheroids, viability % test/control
# test.protocol: Anticancer human tumor 616215-338-R-J1-PDC patient-derived colon adenocarcinoma cell line growth inhibition [CLK]
# study.conditions: second compound 1 µM; first compound 0.000949 µM; stronger effect = lower value

{"compound": "CC(C)CC(NC(=O)C(Cc1ccccc1)NC(=O)c1cnccn1)B(O)O (centres undefined) + CN1CCN(c2cc(C(=O)Nc3cc4cc(-c5cnn(C)c5)ccc4cn3)ccn2)CC1", "unit.of.measure": "%", "viability, T/C": 0.15}
{"compound": "C=CC(=O)Nc1cc(Nc2nccc(-c3cn(C)c4ccccc34)n2)c(OC)cc1N(C)CCN(C)C + CNC(=O)c1ccc(Nc2nc(OC3CCCC3)c3c(-c4ccc5nc(C)oc5c4)c[nH]c3n2)c(OC)c1", "unit.of.measure": "%", "viability, T/C": 43.6}
{"compound": "CC(C)CC(NC(=O)C(Cc1ccccc1)NC(=O)c1cnccn1)B(O)O (centres undefined) + CNC(=O)c1ccc(Nc2nc(OC3CCCC3)c3c(-c4ccc5nc(C)oc5c4)c[nH]c3n2)c(OC)c1", "unit.of.measure": "%", "viability, T/C": 45.3}
{"compound": "C=CC(=O)Nc1cc(Nc2nccc(-c3cn(C)c4ccccc34)n2)c(OC)cc1N(C)CCN(C)C + CN1CCN(c2cc(C(=O)Nc3cc4cc(-c5cnn(C)c5)ccc4cn3)ccn2)CC1", "unit.of.measure": "%", "viability, T/C": 0.17}

---

# Test system: 616215-338-R-J1-PDC complex spheroids, viability % test/control
# test.protocol: Anticancer human tumor 616215-338-R-J1-PDC cell line growth inhibition [CLK];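 further: spheroids exposed to agents for 7 days; 100% = DMSO vehicle wells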
# study.conditions: second compound 0.1 µM; first compound 0.01 µM; stronger effect = lower value
Simple rule here: viability, T/C less than 90% is y, otherwise n.

{"compound": "COc1c(OCCCN2CCOCC2)ccc2c3n(c(=NC(=O)c4cnc(N)nc4)nc12)CCN3 + CN1CCN(c2cc(C(=O)Nc3cc4cc(-c5cnn(C)c5)ccc4cn3)ccn2)CC1", "discrete.label": "n"}
{"compound": "COc1c(OCCCN2CCOCC2)ccc2c3n(c(=NC(=O)c4cnc(N)nc4)nc12)CCN3 + CNC(=O)c1ccc(Nc2nc(OC3CCCC3)c3c(-c4ccc5nc(C)oc5c4)c[nH]c3n2)c(OC)c1", "discrete.label": "y"}
{"compound": "CCN1CCN(Cc2ccc(Nc3ncc(F)c(-c4cc(F)c5nc(C)n(C(C)C)c5c4)n3)nc2)CC1 + CNC(=O)c1ccc(Nc2nc(OC3CCCC3)c3c(-c4ccc5nc(C)oc5c4)c[nH]c3n2)c(OC)c1", "discrete.label": "y"}
{"compound": "Cn1ncnc1[C@H]1c2n[nH]c(=O)c3cc(F)cc(c23)N[C@@H]1c1ccc(F)cc1 + CN1CCN(c2cc(C(=O)Nc3cc4cc(-c5cnn(C)c5)ccc4cn3)ccn2)CC1", "discrete.label": "n"}
{"compound": "CCN1CCN(Cc2ccc(Nc3ncc(F)c(-c4cc(F)c5nc(C)n(C(C)C)c5c4)n3)nc2)CC1 + CN1CCN(c2cc(C(=O)Nc3cc4cc(-c5cnn(C)c5)ccc4cn3)ccn2)CC1", "discrete.label": "n"}

---

Listing of recorded viability, T/C by entry.
# Tested on: 616215-338-R-J1-PDC complex spheroids, viability % test/control
# test.protocol: Anticancer human tumor 616215-338-R-J1-PDC cell line growth inhibition [CLK];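 further: spheroids exposed to agents for 7 days; 100% = DMSO vehicle wells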
# study.conditions: second compound 0.0316 µM; first compound 0.00316 µM; stronger effect = lower value
parameter: viability, T/C (%)

{"compound": "CCc1c2c(nc3ccc(O)cc13)-c1cc3c(c(=O)n1C2)COC(=O)[C@]3(O)CC + CNC(=O)c1ccc(Nc2nc(OC3CCCC3)c3c(-c4ccc5nc(C)oc5c4)c[nH]c3n2)c(OC)c1", "target.under.test": "616215-338-R-J1-PDC complex spheroids, viability % test/control", "parameter": "viability, T/C", "unit.of.measure": "%", "endpoint.result": 111}
{"compound": "CCN1CCN(Cc2ccc(Nc3ncc(F)c(-c4cc(F)c5nc(C)n(C(C)C)c5c4)n3)nc2)CC1 + CNC(=O)c1ccc(Nc2nc(OC3CCCC3)c3c(-c4ccc5nc(C)oc5c4)c[nH]c3n2)c(OC)c1", "target.under.test": "616215-338-R-J1-PDC complex spheroids, viability % test/control", "parameter": "viability, T/C", "unit.of.measure": "%", "endpoint.result": 83}
{"compound": "COc1c(OCCCN2CCOCC2)ccc2c3n(c(=NC(=O)c4cnc(N)nc4)nc12)CCN3 + CNC(=O)c1ccc(Nc2nc(OC3CCCC3)c3c(-c4ccc5nc(C)oc5c4)c[nH]c3n2)c(OC)c1", "target.under.test": "616215-338-R-J1-PDC complex spheroids, viability % test/control", "parameter": "viability, T/C", "unit.of.measure": "%", "endpoint.result": 92.4}
{"compound": "CCc1c2c(nc3ccc(O)cc13)-c1cc3c(c(=O)n1C2)COC(=O)[C@]3(O)CC + CN1CCN(c2cc(C(=O)Nc3cc4cc(-c5cnn(C)c5)ccc4cn3)ccn2)CC1", "target.under.test": "616215-338-R-J1-PDC complex spheroids, viability % test/control", "parameter": "viability, T/C", "unit.of.measure": "%", "endpoint.result": 98.2}
{"compound": "COc1c(OCCCN2CCOCC2)ccc2c3n(c(=NC(=O)c4cnc(N)nc4)nc12)CCN3 + CN1CCN(c2cc(C(=O)Nc3cc4cc(-c5cnn(C)c5)ccc4cn3)ccn2)CC1", "target.under.test": "616215-338-R-J1-PDC complex spheroids, viability % test/control", "parameter": "viability, T/C", "unit.of.measure": "%", "endpoint.result": 105}

---

# Test system: 616215-338-R-J1-PDC complex spheroids, viability % test/control
# test.protocol: Anticancer human tumor 616215-338-R-J1-PDC cell line growth inhibition [CLK];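 further: spheroids exposed to agents for 7 days; 100% = DMSO vehicle wells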
# study.conditions: second compound 0.1 µM; first compound 0.1 µM; stronger effect = lower value
Listing of recorded viability, T/C by entry.

{"compound": "CC(=O)O[C@H]1C(=O)[C@@]2(C)[C@H]([C@H](OC(=O)c3ccccc3)[C@]3(O)C[C@H](OC(=O)[C@H](O)[C@@H](NC(=O)c4ccccc4)c4ccccc4)C(C)=C1C3(C)C)[C@]1(OC(C)=O)CO[C@@H]1C[C@@H]2O + CN1CCN(c2cc(C(=O)Nc3cc4cc(-c5cnn(C)c5)ccc4cn3)ccn2)CC1", "viability, T/C / %": 17.9}
{"compound": "COc1c(OCCCN2CCOCC2)ccc2c3n(c(=NC(=O)c4cnc(N)nc4)nc12)CCN3 + CNC(=O)c1ccc(Nc2nc(OC3CCCC3)c3c(-c4ccc5nc(C)oc5c4)c[nH]c3n2)c(OC)c1", "viability, T/C / %": 34}
{"compound": "CCCS(=O)(=O)Nc1ccc(F)c(C(=O)c2c[nH]c3ncc(-c4ccc(Cl)cc4)cc23)c1F + CNC(=O)c1ccc(Nc2nc(OC3CCCC3)c3c(-c4ccc5nc(C)oc5c4)c[nH]c3n2)c(OC)c1", "viability, T/C / %": 62.2}
{"compound": "C=C(F)C(=O)N1CCN(c2nc(OCC3CCCN3C)nc3c2CCN(c2cccc4cccc(Cl)c24)C3)CC1CC#N (centres undefined) + CNC(=O)c1ccc(Nc2nc(OC3CCCC3)c3c(-c4ccc5nc(C)oc5c4)c[nH]c3n2)c(OC)c1", "viability, T/C / %": 38.4}

---

# Test system: 616215-338-R-J1-PDC complex spheroids, viability % test/control
# test.protocol: Anticancer human tumor 616215-338-R-J1-PDC cell line growth inhibition [CLK];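 further: spheroids exposed to agents for 7 days; 100% = DMSO vehicle wells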
# study.conditions: second compound 10 µM; first compound 0.03 µM; stronger effect = lower value
Listing of recorded viability, T/C by entry.

{"molecule": "NC(=O)C(=Cn1cnc(-c2cc(C(F)(F)F)cc(C(F)(F)F)c2)n1)c1cncnc1 + CN1CCN(c2cc(C(=O)Nc3cc4cc(-c5cnn(C)c5)ccc4cn3)ccn2)CC1", "target.under.test": "616215-338-R-J1-PDC complex spheroids, viability % test/control", "unit.of.measure": "%", "viability, T/C": 0.13}
{"molecule": "C=CC(=O)Nc1cc(Nc2nccc(-c3cn(C)c4ccccc34)n2)c(OC)cc1N(C)CCN(C)C + CN1CCN(c2cc(C(=O)Nc3cc4cc(-c5cnn(C)c5)ccc4cn3)ccn2)CC1", "target.under.test": "616215-338-R-J1-PDC complex spheroids, viability % test/control", "unit.of.measure": "%", "viability, T/C": 0.24}
{"molecule": "C=CC(=O)Nc1cc(Nc2nccc(-c3cn(C)c4ccccc34)n2)c(OC)cc1N(C)CCN(C)C + CNC(=O)c1ccc(Nc2nc(OC3CCCC3)c3c(-c4ccc5nc(C)oc5c4)c[nH]c3n2)c(OC)c1", "target.under.test": "616215-338-R-J1-PDC complex spheroids, viability % test/control", "unit.of.measure": "%", "viability, T/C": 28.8}
